system.under.test: ETS1 (Homo sapiens, UniProt P14921 1-441)
Sequence: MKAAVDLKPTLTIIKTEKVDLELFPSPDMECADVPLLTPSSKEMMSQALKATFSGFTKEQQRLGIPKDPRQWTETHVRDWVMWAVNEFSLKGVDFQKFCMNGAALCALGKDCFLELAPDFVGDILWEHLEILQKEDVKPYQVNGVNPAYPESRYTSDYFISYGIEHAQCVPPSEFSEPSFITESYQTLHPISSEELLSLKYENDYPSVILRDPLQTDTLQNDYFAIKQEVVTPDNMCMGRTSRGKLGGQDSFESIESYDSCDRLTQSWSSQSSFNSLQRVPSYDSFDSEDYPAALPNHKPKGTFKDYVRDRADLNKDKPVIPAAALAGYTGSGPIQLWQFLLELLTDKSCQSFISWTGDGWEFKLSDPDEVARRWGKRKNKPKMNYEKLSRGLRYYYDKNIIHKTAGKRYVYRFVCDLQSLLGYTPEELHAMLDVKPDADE
experimental.details: custom PBM; custom protein-binding microarray; buffer, salt, pH and temperature not stated; high values mean tight binding
condition.info: dsDNA, one strand shown
Whole data set: some 1,300 sequences, median “log fluorescence intensity” near 8.3, cut for the highest 2% near 12. What follows is part of a selection rich in the highest values, with near analogues and random picks from the rest.
recorded.endpoint: binding signal

Please report the recorded binding signal for GGAAAAACGCCCAGGGTAACACCGGAAGTGGGCTTAGTCTTGATTCGCTTGACGCTGCTG . 12.1 log fluorescence intensity

Continue with GCTGCTGCGGTGCATACCTCACCGGATGTGACCCCGGTCTTGATTCGCTTGACGCTGCTG 9.97 log fluorescence intensity

Continue with GGAAAAAGGCCCAGGGTAACACCGGAAGTGGGCTTGGTCTTGATTCGCTTGACGCTGCTG 11.8 log fluorescence intensity

Continue with TAAAGGAAAGACGGTTGTGGTAGTTCCGGGTATTAAGTCTTGATTCGCTTGACGCTGCTG 8.77 log fluorescence intensity

Continue with GCTGCTGCGGTGCATAACCCACCGGATGTGACCCCGGTCTTGATTCGCTTGACGCTGCTG 10.4 log fluorescence intensity

Continue with TAAAGGGAAGACGGTTGTGGTAGTTCCGGGTATTCAGTCTTGATTCGCTTGACGCTGCTG 8.52 log fluorescence intensity

Continue with ACTGCTGCGGTGCATACCCCACCGGATGTGACCCCGGTCTTGATTCGCTTGACGCTGCTG 10.4 log fluorescence intensity

Continue with GGAAAAAGGCCCAGGGTAACACCGGAAGTGGGCTTTGTCTTGATTCGCTTGACGCTGCTG 12.1 log fluorescence intensity

Continue with GGAAAACGGCCCAGGGTAACACCGGAAGTGGGCTTAGTCTTGATTCGCTTGACGCTGCTG 12 log fluorescence intensity

Continue with GCTGCTGCGGTGCACACCCCACCGGATGTGACCCCGGTCTTGATTCGCTTGACGCTGCTG 10.3 log fluorescence intensity

Continue with GAAAAAAGGCCCAGGGTAACACCGGAAGTGGGCTTAGTCTTGATTCGCTTGACGCTGCTG 12.1 log fluorescence intensity

Continue with TAAACGGAAGACGGTTGTGGTAGTTCCGGGTATTAAGTCTTGATTCGCTTGACGCTGCTG 10.1 log fluorescence intensity

Continue with GCTGCTGCGGTGCATACCCCACCAGATGTGACCCCGGTCTTGATTCGCTTGACGCTGCTG 8.36 log fluorescence intensity

Continue with CTGAAGTGTCGTAAACGTCGGATATCCGGTTCTTCTGTCTTGATTCGCTTGACGCTGCTG 11.8 log fluorescence intensity

Continue with TACTGACTTATATATGCGAATGCACATCAATAGACCGTCTTGATTCGCTTGACGCTGCTG 8.32 log fluorescence intensity

Continue with GGAAAAAGGCCCAGGGTAACACCGGAAGTGGGCTGAGTCTTGATTCGCTTGACGCTGCTG 11.9 log fluorescence intensity

Continue with GTGTATAGGATCCCATCGAACACACGTGTTAAAATGGTCTTGATTCGCTTGACGCTGCTG 8.36 log fluorescence intensity

Continue with GGAAAAAGGCCCAGGGTAACACCGGAAGTGGGCTTAGTCTTGATTCGCTTGACGCTGCTG 12 log fluorescence intensity
